- Protocol notes: protease stability score; higher = more stable; yeast display proteolysis, trypsin and chymotrypsin;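 further: relative to predicted unfolded state with 0 unfolded-like and 1 meaning tenfold more protease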
Parameter measured: protease stability score
Give bare numbers.

Observe how each entry below is paired with its result.
TEDEDVLKEATRLFVEALKTGDWDHMRRLIDPNARVTQGDKEIHGMEDTVKIRRHLYEKWGVERVEMRIHDMEYQGDKLKVDMELQIGDKHKRIELVLRKVDGQWIIERIRYT = 0.528
DEHTKEMKHFLKEWLHNFFTGNEERWAHLADPHVRSDINGVELHGWDLLFRKMRKHREDLGAPHIRDFHIHSMHVINGVIHIDGEIDVDVNGVRIRSRVEIHLNVVNGRNKSEHYHHI = 0.68
DHRESLRDDMEELLLEVIHTGDWHNYLKLLDPNARLVVGDKEYMGRERVLHWFKEKLDKIPGAKIELEDKREIGNKVELDFDMHVGDKSLRLHIDLRKVNGRWLIEHIEIR = 1.47

Please give protease stability score for each item listed below.
1. SEIDREHHELLTLLVHLWLTGDWKTFKKYFDPNVRLHQGDFDDHGWEALEETERKHGIEIKDLELHEFHVQGEKIIINLHVVIRQGDKTYRKDMRITYVVVNGRVTSIRMEVR
2. DEVKKFLDELLEILRKYSETGDEDSYTEMFDPNTRLLFEGRKFVGREEAIKFLRRVDVFSIKNFTMRHVETQGDWLHIDGEVLLLIIFNGKTFELKTKITFIMLKIDGRWILHAEEIR

Result string:
[0.877, 1.71]

Sample "DPREIALKLLLQIMQELEETGDFREEEKYVDPHMRIKIDGVIYHGRSAIEHEYRRFDHIHEIELKRFHVQGDKITLEGYIRGNFDGKEHNTRSILLAKKVNGRWVLTEVTWL" ; protease stability score observed: 0.801

----------
- Protocol notes: protease stability score; higher = more stable; yeast display proteolysis, trypsin and chymotrypsin;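 further: relative to predicted unfolded state with 0 unfolded-like and 1 meaning tenfold more protease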
Parameter measured: protease stability score

RDEDRDRHHAWREFERIMLTGDWRESEKLIDPHVRLDIDGRRHHGMEIYSTLLYHISTRADHIRVILDDIKVQGEKVEVDTIIDIHVGDKHIHIKTHIVASKINGRWFLHSLKID = 0.929

Please give protease stability score for each item listed below.
1. GEEHELTERAIEHFVDIWKTGDEDSLEENIDPHARIDFNGQQLHGREEMYRFMHKVNRQIKGIRLSFKYIDLRIYGDKVIVHNDGVVRVGDKVHDEQTKLEMRKVDGRWLFKSVTVFVL
2. SEEDELDERLLKIMRHAFETGDEEIFMRLVDPHTRTEFNGQEVHGREHLHRWLKEILRTLGVKYVERKDIRAWDGRIHLEFEMHVNGRTLKLTVVVIFINGKLHEYSERIE

Result string:
1.05
1.61

----------
- Protocol notes: protease stability score; higher = more stable; yeast display proteolysis, trypsin and chymotrypsin;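 further: relative to predicted unfolded state with 0 unfolded-like and 1 meaning tenfold more protease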
Assign class by protease stability score: not lower than 2 means Yes; lower than 2 means No.

Reference set, count: 4
SQEEQDTEEFLRHLHEALRTGDEKTLRTLIDPHVRLFINGVHLHGREELVRWLKEFVDRLGIDVSTLHIDDMRIIGNFIELDTKIRWKIGDKTEEVETRFIIVKIDGRWYVRQVEMG = Yes
SESEEFLEKAYRLIEESLRTGDFREMLSNIDPNARFRYGNFDFHGRENLEFMLKELSKRIDHFHNSHIRRVNVINGRMHLHTSMHVEYDGKKEEVETEWVLLKVDGQWLIKEVTVI = Yes
SEEEEWAEIASKLEIEIYLTGDFERFRKFADPHVRYEIHIDGREFKIHGMELYSEWLLRFKGVRLFIKDERISVIGDKLYIHINGDLEFNGRRQDVHFEFLTLKVDGRWIVKKIRNESR = No
HEDEEIVKTFAKIRTELERTGDWETIMRLLDPHVRMDIDGVRVHGMEEVVRHIREFEEKFGVTNVQSRFRDVRIIGDKVDIHSQVHINGVEKNLHIHVEKFNGKWVITEIKIE = No

Query string: Hi, just wondering whether "KEDEEYFREVTKNLLELIETGDFDMLTELLDPHMLLDVNGRTFHGWELAVEWYRQHVKKFGIDNIKVTLKHIHIQGNKIHLDVEVEIGDKTERREFVLTKINGRWRFDSVVVR" shows protease stability score of 2 or higher.
Result string: Yes
